Assign DLS particle size range (nm) to each entry below.
- assay text: DLS particle size / self-assembly of the compounds in aqueous solution
- Assay type: physicochemical
- applied conditions: micro-nano structure, 20 μM working solution in deionized water

Example results:
molecule | DLS particle size range (nm)
CCN1C(=CC=C2CCCC(C=CC3=C(C#N)C(=C(C#N)C#N)OC3(C)C)=C2Cl)C(C)(C)c2ccc3ccccc3c21 [II-14] | 27-134 nm
C=CCOc1ccc(C2CC(=CC=C3N(CC)c4ccccc4C3(C)C)C(Cl)=C(C=CC3=C(C#N)C(=C(C#N)C#N)OC3(C)C)C2)cc1 (stereo not shown) [II-12] | 20-160 nm
CCN(CC)c1ccc2c(c1)OC1=C(C=C3CCCC(C=CC4=C(C#N)C(=C(C#N)C#N)OC4(C)C)=C3Cl)CCCC1=C2 [II-18] | 42-139 nm

Now take the following molecule into account.
Query DLS particle size range (nm) for CCn1c(=CC=C2CCCC(C=CC3=C(C#N)C(=C(C#N)C#N)OC3(C)C)=C2Cl)c2cccc3cccc1c32 [II-16]
163-293 nm

----------
- assay text: DLS particle size / self-assembly of the compounds in aqueous solution
- Assay type: physicochemical
- applied conditions: micro-nano structure, 20 μM working solution in deionized water
value type: DLS particle size range (nm)

Example results:
molecule | value reported
C#CCOc1ccc(C2CC(=CC=C3N(CC)c4ccccc4C3(C)C)C(NCCn3ccnc3[N+](=O)[O-])=C(C=CC3=C(C#N)C(=C(C#N)C#N)OC3(C)C)C2)cc1 (stereo not shown) | 40-110 nm
CCN1C(=CC=C2CCCC(C=CC3=C(C#N)C(=C(C#N)C#N)OC3(C)C)=C2Cl)C(C)(C)c2ccccc21 | 33-266 nm
C#CCOc1ccc(C2CC(=CC=C3N(CC)c4ccccc4C3(C)C)C(Cl)=C(C=CC3=C(C#N)C(=C(C#N)C#N)OC3(C)C)C2)cc1 (stereo not shown) | 40-110 nm

Query DLS particle size range (nm) for CCN1C(=CC=C2CCCC(C=CC3=C(C#N)C(=C(C#N)C#N)OC3(C)C)=C2Cl)Sc2ccccc21
10-86 nm

----------
- assay text: DLS particle size / self-assembly of the compounds in aqueous solution
- Format: physicochemical
- applied conditions: micro-nano structure, 20 μM working solution in deionized water
// label = True if DLS particle size peak (nm) is not less than 70 nm, otherwise False

Previously resolved entries follow.
molecule | group label
C#CCOc1ccc(C2CC(=CC=C3N(CC)c4ccccc4C3(C)C)C(Cl)=C(C=CC3=C(C#N)C(=C(C#N)C#N)OC3(C)C)C2)cc1 (centres unmarked) | True
CCN1C(=CC=C2CCCC(C=CC3=C(C#N)C(=C(C#N)C#N)OC3(C)C)=C2Cl)C(C)(C)c2ccccc21 | True
CCN1C(=CC=C2CCCC(C=CC3=C(C#N)C(=C(C#N)C#N)OC3(C)C)=C2Cl)C(C)(C)c2ccc3ccccc3c21 | True
CCn1c(=CC=C2CCCC(C=CC3=C(C#N)C(=C(C#N)C#N)OC3(C)C)=C2Cl)c2cccc3cccc1c32 | True
CCN1C(=CC=C2CCCC(C=CC3=C(C#N)C(=C(C#N)C#N)OC3(C)C)=C2Cl)Sc2ccccc21 | False
CCN(CC)c1ccc2c(c1)OC1=C(C=C3CCCC(C=CC4=C(C#N)C(=C(C#N)C#N)OC4(C)C)=C3Cl)CCCC1=C2 | False
C=CCOc1ccc(C2CC(=CC=C3N(CC)c4ccccc4C3(C)C)C(Cl)=C(C=CC3=C(C#N)C(=C(C#N)C#N)OC3(C)C)C2)cc1 (centres unmarked) | True

Next, consider the following molecule.
Textbook exercise: given the entry C#CCOc1ccc(C2CC(=CC=C3N(CC)c4ccccc4C3(C)C)C(NCCn3ccnc3[N+](=O)[O-])=C(C=CC3=C(C#N)C(=C(C#N)C#N)OC3(C)C)C2)cc1 (centres unmarked) , state whether its DLS particle size peak (nm) is greater than or equal to 70 nm.
False
